# protocol-text: in vivo
# experimental-setup: female, SCID, mouse, total radioactivity, Tumor to blood ratio
endpoint-label: tissue to tissue ratio at 1.5 h
API note: the answer field is a bare number with no unit suffix.

What value of tissue to tissue ratio at 1.5 h has been recorded for this entry: CSCC[C@H](NC(=O)[C@H](CC(C)C)NC(=O)CNC(=O)[C@H](Cc1ccccc1)NC(=O)[C@H](Cc1ccccc1)NC(=O)[C@H](CCC(N)=O)NC(=O)[C@H](CCC(N)=O)NC(=O)[C@@H]1CCCN1C(=O)[C@H](CCCCN)NC(=O)[C@@H]1CCCN1C(=O)[C@H](CCCNC(=N)N)NC(=O)CN1CCN(CC(=O)O)CCN(CC(=O)O)CCN(CC(=O)O)CC1)C(N)=O [^68Ga-DOTA-substance P, DOTA-substance P, metal not drawn] 2.84

Sourced from paper PMC6651196
